- SUBJECT_OF_TEST: AP-1 complex (Fos/Jun peptide) (Homo sapiens, UniProt P01100+P05412)
- Construct: made in house; host or cells: chemical peptide synthesis (no expression host)
- Sequence (P01100 137-200 limits assumed): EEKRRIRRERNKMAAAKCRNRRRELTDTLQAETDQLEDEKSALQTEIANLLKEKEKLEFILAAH
- Sequence (P05412 252-315 limits assumed): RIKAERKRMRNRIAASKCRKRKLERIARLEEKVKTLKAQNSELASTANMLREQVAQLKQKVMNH
- ASSAY_INFO: Effect on AP-1 binding activity to AP-1 recognition sequence (ELISA)
- ASSAY_SETUP: inhibition of binding of digoxigenin-labeled AP-1 binding sequence oligonucleotide to Fos/Jun peptide, absorbance 492 nm, read-out: Concentration (μM) at 50% inhibition
Doc: threshold 300 µM (exclusive). Items with IC50 beneath it return True; others return False.

As a guide, the following entries are already answered.
{"COMPOUND": "O=C(O)CCc1cc(C(=O)c2ccc(OCC3CCCCC3)cc2O)ccc1OCc1ccc(C(=O)O)cc1 [49(56)]", "ANSWER_LABEL": "True"}
{"COMPOUND": "CC(C)COc1ccc(C(=O)c2ccc(OCc3ccc(C(=O)NO)cc3)c(CCC(=O)O)c2)c(O)c1 [49(48)]", "ANSWER_LABEL": "False"}
{"COMPOUND": "O=C(O)CCc1cc(C(=O)c2ccc(OC3CCCC3)cc2O)ccc1OCc1ccc2[nH]c(=O)[nH]c(=O)c2c1 [49(70)]", "ANSWER_LABEL": "True"}
{"COMPOUND": "CC(C)COc1ccc(C(=O)c2ccc(OCc3ccc(C(=O)NS(C)(=O)=O)cc3)c(CCC(=O)O)c2)c(O)c1 [49(8)]", "ANSWER_LABEL": "False"}

IN: Decide: IC50 of Cc1cc(C(=O)O)ccc1COc1ccc(C(=O)c2ccc(OC3CCCC3)cc2O)cc1CCC(=O)O [49(3)] strictly below 300 µM?
OUT: True

IN: What do you have for O=C(O)CCc1cc(C(=O)c2ccc(OC3CCCC3)cc2O)ccc1OCc1nc2cc(C(=O)O)ccc2s1 [49(77)] ?
OUT: False

IN: What do you have for O=C(O)CCc1cc(C(=O)c2ccc(OCc3ccco3)cc2O)ccc1OCc1ccc(C(=O)O)cc1 [49(40)] ?
OUT: True

IN: What do you have for O=C(O)CCc1cc(C(=O)c2ccc(OC3CCCC3)cc2O)ccc1OCc1ccc(C(=O)O)cc1O [32(1)] ?
OUT: False

IN: What do you have for O=C(O)CCc1cc(C(=O)c2ccc(OC3CCCC3)cc2O)ccc1OCc1ccc(S(=O)(=O)O)cc1 [49(54)] ?
OUT: True

IN: What do you have for O=C(O)CCc1cc(C(=O)c2ccc(OC3CCCC3)cc2O)ccc1OCc1ccc(C(=O)O)cc1 [Example 44] ?
OUT: False

Source listed as patent US7772285B2.
